Sourced from patent US20230242496A1

Molecular target: (His)6-SOX11-DBD protein (Homo sapiens, UniProt P35716)
Construct: Recombinant (His)6-SOX11-DBD protein was immobilized
Sequence (P35716 49-117 limits assumed): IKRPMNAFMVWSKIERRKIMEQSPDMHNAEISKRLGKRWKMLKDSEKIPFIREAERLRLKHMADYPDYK
Experiment: Surface Plasmon Resonance (SPR) assay
Settings: immobilized recombinant (His)6-SOX11-DBD, 25° C., compounds 5-40 μM, mean of three experiments
Values of Kd strictly less than 8 µM map to fulfilled, and values of at least 8 µM map to not fulfilled.

IN: Please let me know if CN(c1ccccc1)S(=O)(=O)c1cccc(NC(=O)c2ccc3snnc3c2)c1 shows Kd below 8 µM.
OUT: not fulfilled

IN: Check CC1Sc2ccc(C(=O)Nc3cccc(S(=O)(=O)Nc4ccc(F)cc4)c3)cc2NC1=O (centres unmarked) too.
OUT: not fulfilled

IN: Check CN(c1ccccc1)S(=O)(=O)c1ccc(NC(=O)c2ccc3c(c2)CCCS3)cc1Cl too.
OUT: not fulfilled

IN: Check O=C(Nc1ccc(S(=O)(=O)Nc2ccccc2)cc1)c1ccc2snnc2c1 too.
OUT: fulfilled
